Details: in water, 298.2 K
Observation type: solubility (mole fraction)
Would you mind answering with just the numeric figure?

Item: c1ccc2c(c1)Nc1ccccc1S2 | solubility (mole fraction): 1.56e-07

###

Conditions: in water, 308.2 K
Observation type: solubility (mole fraction)
When you answer, write just the number.

Entry c1ccc2c(c1)Nc1ccccc1S2 ; solubility (mole fraction) = 1.98e-07

###

Conditions: in propylene glycol, 318.2 K
Observation type: solubility (mole fraction)
Just the number.

Reported solubility (mole fraction) of c1ccc2c(c1)Nc1ccccc1S2 : 0.00656

###

Conditions: in water, 338.2 K
Observation type: solubility (mole fraction)
Just the number.

The recorded solubility (mole fraction) for entry c1ccc2c(c1)Nc1ccccc1S2 equals 4.91e-07

Recorded values, source BigSolDB 2.1.
